Can you tell me viability for the items I'm about to list?
Test system: primary BL patient cells (S005)
Test: viability relative to DMSO control (fraction); higher = less drug effect (more viable cells)
Conditions: 0.024 µM; 48 h
Answers are plain numbers.

Some entries whose results are on file:
COMPOUND	ASSAY RESULT
Cc1cc(Nc2ncc(Cl)c(Nc3ccccc3S(=O)(=O)C(C)C)n2)c(OC(C)C)cc1C1CCNCC1 [Ceritinib]	1.05
N#Cc1ccnc(N2C(=O)CC[C@H]2C(=O)N(c2cncc(F)c2)[C@H](C(=O)NC2CC(F)(F)C2)c2ccccc2Cl)c1 [AG-120]	0.99
Nc1nc(=S)c2[nH]cnc2[nH]1 [Thioguanin]	0.938
N#CC[C@H](C1CCCC1)n1cc(-c2ncnc3[nH]ccc23)cn1 [Ruxolitinib]	1.01

Next, consider the following compound.
(Q) Checklist item: viability tested on primary BL patient cells (S005), entry O=C(Nc1cccc(C(F)(F)F)c1)Nc1cc(S(=O)(=O)NC2CC2)ccc1-c1ccsc1 [AGI-6780] , value?
(A) 0.818

----------
Tested on: primary MCL patient cells (S041)
Assay: viability relative to DMSO control (fraction); higher = less drug effect (more viable cells)
Conditions: 0.6 µM; 48 h
Task for the reader: assign each of the following compounds its reported viability.
Numbers only.

Use the examples below as a reference point.
COMPOUND	ASSAY RESULT
CCc1nc(C(N)=O)c(Nc2ccc(N3CCC(N4CCN(C)CC4)CC3)c(OC)c2)nc1NC1CCOCC1 [Gilteritinib]	0.705
CNC(=O)c1cc(Oc2ccc(NC(=O)Nc3ccc(Cl)c(C(F)(F)F)c3)cc2)ccn1 [Sorafenib]	1.04
O=C(c1cc(Cc2n[nH]c(=O)c3ccccc23)ccc1F)N1CCN(C(=O)C2CC2)CC1 [Olaparib]	0.93

(Q) Query: viability; subject: CCN1CCN(Cc2ccc(Nc3ncc(F)c(-c4cc(F)c5nc(C)n(C(C)C)c5c4)n3)nc2)CC1
(A) 0.757

----------
Test system: primary ALL patient cells (S088)
Test: viability relative to DMSO control (fraction); higher = less drug effect (more viable cells)
Details: 3 µM; 48 h
Answer each item with its documented viability.
Answers are plain numbers.

Field: viability. Fill in for each record below.
1. O=C(c1cc(Cc2n[nH]c(=O)c3ccccc23)ccc1F)N1CCN(C(=O)C2CC2)CC1
2. CCc1nc(C(N)=O)c(Nc2ccc(N3CCC(N4CCN(C)CC4)CC3)c(OC)c2)nc1NC1CCOCC1
3. Cc1cc(Nc2ncc(Cl)c(Nc3ccccc3S(=O)(=O)C(C)C)n2)c(OC(C)C)cc1C1CCNCC1

(A)
0.821
0.414
0.35

(Q) Request - read-out viability | tested on primary ALL patient cells (S088) | compound CS(=O)(=O)c1ccc(C(=O)Nc2ccc(Cl)c(-c3ccccn3)c2)c(Cl)c1
(A) 0.797

----------
System: primary AML patient cells (S009)
Test: viability relative to DMSO control (fraction); higher = less drug effect (more viable cells)
Settings: 0.024 µM; 48 h
# label = 1 (yes) if viability < 1 else 0 (no)

Illustrative cases are given below, each with its answer.
N#CC[C@H](C1CCCC1)n1cc(-c2ncnc3[nH]ccc23)cn1 0 (no)
Nc1nc(=S)c2[nH]cnc2[nH]1 0 (no)
Nc1ncn([C@H]2C[C@H](O)[C@@H](CO)O2)c(=O)n1 1 (yes)

In the following, a different compound is considered.
(Q) Confirm or reject: viability of O=C(Nc1cccc(C(F)(F)F)c1)Nc1cc(S(=O)(=O)NC2CC2)ccc1-c1ccsc1 lies strictly below 1
(A) 1 (yes)
